tested_on: RORγ (UniProt P51449)
procedure_text: RORγ Gal4 Reporter Gene Assay in 293T cells (firefly and renilla luciferase)
Assay type: cell-based, human
cond: third value of the cell; Gal4 reporter gene assay in 293T cells, renilla normalised luciferase
Lab note: compare pIC50 (REN) against 7. Equal or greater, write true (1). Smaller, write false (0).

>>> class_name("Cc1c(C(=O)NCCN2CCN(S(C)(=O)=O)CC2)cc(-c2cc(C(C)(C)C)cc(C3(C)CC3)c2)n1CC1CCCCC1 [17/347]")
"false (0)"
>>> class_name("Cc1c(C(=O)NC2CCOCC2)cc(-c2ccc(C(=O)NC3CCCCC3)c(C(F)(F)F)c2)n1CC1CCCCC1 [6/9]")
"false (0)"

Textbook exercise: given the entry Cc1c(C(=O)NC2CCOCC2)cc(-c2ccc(S(=O)(=O)NCC(F)(F)F)c(C(C)(C)C)c2)n1CC1CCCCC1 [17/101] , state whether its pIC50 (REN) is greater than or equal to 7. true (1)

Is it the case that Cc1c(C(=O)NCC(C)(C)C(N)=O)cc(-c2cc(C(C)(C)C)cc(C3(C)CC3)c2)n1CC1CCCCC1 [1/85] has pIC50 (REN) reaching or exceeding 7? true (1)
